Source: patent US20240391954A1

target: human MC4R (Homo sapiens, UniProt P32245); construct: host or cells: HEK-293 cells stably expressing the GScAMP22F split-luciferase cAMP sensor and hMC4R, G418 selection; assay: split-luciferase cAMP sensor assay, agonist mode (measurement window 1), hMC4R; type: cell-based; settings: % maximal activation, agonist mode; read-out: MC4R cAMP % max activation
Sequence (P32245 whole entry): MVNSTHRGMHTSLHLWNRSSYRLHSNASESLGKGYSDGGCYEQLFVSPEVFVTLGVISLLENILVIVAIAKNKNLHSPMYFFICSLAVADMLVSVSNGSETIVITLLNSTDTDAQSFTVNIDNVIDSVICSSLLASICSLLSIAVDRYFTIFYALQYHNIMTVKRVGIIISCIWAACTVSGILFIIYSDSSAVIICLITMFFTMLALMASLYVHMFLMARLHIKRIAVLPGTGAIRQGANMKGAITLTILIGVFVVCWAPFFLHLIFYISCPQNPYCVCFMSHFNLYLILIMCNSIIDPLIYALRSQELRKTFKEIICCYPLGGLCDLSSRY
Positions of bridges follow the written chain, without caps; N, C: chain ends. Non-standard residues stand in square brackets, D forms with d. Residues, ends and D or L forms follow the SMILES beside them. 1Nal = N[C@@H](Cc1cccc2ccccc12)C(=O)O; 4Pal = N[C@@H](Cc1ccncc1)C(=O)O; Cit = NC(=O)NCCC[C@H](N)C(=O)O; Nle = CCCC[C@H](N)C(=O)O; Aib = CC(C)(N)C(=O)O
What Emax was measured for each of the following?
Answer with a number only, understood to be in %.

query: Specify the recorded Emax for CC(=O)N[C@H]1CSSC[C@@H](C(N)=O)NC(=O)[C@H](Cc2c[nH]c3ccccc23)NC(=O)[C@H](CCCNC(=N)N)NC(=O)[C@@H](Cc2ccccc2)NC(=O)[C@H](CCCNC(=N)N)NC(=O)CNC1=O [CTX-1629, cyclo(Cys-Gly-Arg-D-Phe-Arg-Trp-Cys)] (Ac-CGR[dF]RWC-NH2; disulfide 1-7) , system: human MC4R (Homo sapiens, UniProt P32245).
result: 102

query: Retrieve Emax on human MC4R (Homo sapiens, UniProt P32245); query CCCC[C@H](NC(=O)[C@H](CCCNC(=N)N)NC(C)=O)C(=O)N[C@H]1CSSC[C@@H](C(N)=O)NC(=O)[C@H](Cc2c[nH]c3ccccc23)NC(=O)[C@H](CCCNC(=N)N)NC(=O)[C@H](Cc2cccc3ccccc23)NC(=O)[C@H](Cc2c[nH]cn2)NC1=O [CTX-1610] (Ac-R[Nle]CH[1Nal]RWC-NH2; disulfide 3-8)
result: 90

query: Write down the reported Emax (system: human MC4R (Homo sapiens, UniProt P32245)) of CC(=O)N[C@H]1CSSC[C@@H](C(N)=O)NC(=O)[C@H](Cc2ccccc2)NC(=O)[C@H](CCCNC(=N)N)NC(=O)[C@@H](Cc2ccccc2)NC(=O)[C@H](CCCNC(=N)N)NC(=O)CNC1=O [CTX-1638, cyclo(Cys-Gly-Arg-D-Phe-Arg-Phe-Cys)] (Ac-CGR[dF]RFC-NH2; disulfide 1-7)
result: 110

query: Recall the reported Emax of CCCC[C@H](NC(=O)[C@H](CCCNC(=N)N)NC(C)=O)C(=O)N[C@H]1CSSC[C@@H](C(N)=O)NC(=O)[C@H](Cc2c[nH]c3ccccc23)NC(=O)[C@H](CCCNC(=N)N)NC(=O)[C@@H](Cc2ccccc2)NC(=O)[C@H](Cc2ccncc2)NC1=O [CTX-1621] (Ac-R[Nle]C[4Pal][dF]RWC-NH2; disulfide 3-8 (inferred)) when tested on human MC4R (Homo sapiens, UniProt P32245).
result: 92

query: Give measured Emax for CC(=O)N[C@@H](CCCNC(=N)N)C(=O)N[C@H]1CSSC[C@@H](C(N)=O)NC(=O)[C@H](Cc2ccccc2)NC(=O)[C@H](CCCNC(=N)N)NC(=O)[C@@H](Cc2ccccc2)NC(=O)[C@H](Cc2ccncc2)NC(=O)C(C)(C)NC1=O [CTX-1606] (Ac-RC[Aib][4Pal][dF]RFC-NH2; disulfide 2-8 (inferred)) (human MC4R (Homo sapiens, UniProt P32245)).
result: 92

query: Give reported Emax for CC(=O)N[C@@H](CCCNC(=N)N)C(=O)N[C@H]1CSSC[C@@H](C(N)=O)NC(=O)[C@H](Cc2c[nH]c3ccccc23)NC(=O)[C@H](CCCNC(N)=O)NC(=O)[C@@H](Cc2ccccc2)NC(=O)[C@H](CCCNC(=N)N)NC(=O)C(C)(C)NC1=O [CTX-1270, Arg-cyclo(Cys-Aib-Arg-D-Phe-Cit-Trp-Cys)] (Ac-RC[Aib]R[dF][Cit]WC-NH2; disulfide 2-8) (human MC4R (Homo sapiens, UniProt P32245))
result: 98

query: Report value: Emax, system: human MC4R (Homo sapiens, UniProt P32245), compound: C[C@H]1NC(=O)CSC[C@@H](C(N)=O)NC(=O)[C@H](Cc2c[nH]c3ccccc23)NC(=O)[C@H](CCCNC(=N)N)NC(=O)[C@@H](Cc2ccccc2)NC(=O)[C@H](Cc2c[nH]cn2)NC1=O
result: 104

query: Give reported Emax for CCCC[C@H](NC(=O)[C@H](CCCNC(=N)N)NC(C)=O)C(=O)N[C@H]1CSSC[C@@H](C(N)=O)NC(=O)[C@H](Cc2ccccc2)NC(=O)[C@H](CCCNC(=N)N)NC(=O)[C@@H](Cc2ccccc2)NC(=O)[C@H](Cc2c[nH]cn2)NC1=O [CTX-1625, Arg-Nle-cyclo(Cys-His-D-Phe-Arg-Phe-Cys)] (Ac-R[Nle]CH[dF]RFC-NH2; disulfide 3-8) (human MC4R (Homo sapiens, UniProt P32245))
result: 101

query: # return Emax of CCCC[C@H](NC(=O)[C@H](CCCNC(=N)N)NC(C)=O)C(=O)N[C@H]1CSSC[C@@H](C(N)=O)NC(=O)[C@H](Cc2ccccc2)NC(=O)[C@H](CCCNC(=N)N)NC(=O)[C@@H](Cc2ccccc2)NC(=O)[C@H](CCCNC(=N)N)NC1=O [CTX-1622, Arg-Nle-cyclo(Cys-Arg-D-Phe-Arg-Phe-Cys)] (Ac-R[Nle]CR[dF]RFC-NH2; disulfide 3-8 (inferred)) (system: human MC4R (Homo sapiens, UniProt P32245))
result: 101

query: Name the value of Emax reported for COc1ccc(C[C@H]2NC(=O)[C@H](CCCNC(=N)N)NC(=O)C(C)(C)NC(=O)[C@@H](NC(=O)[C@H](CCCNC(=N)N)NC(C)=O)CSSC[C@@H](C(N)=O)NC(=O)[C@@H](Cc3c[nH]c4ccccc34)NC(=O)[C@H](CCCNC(=N)N)NC2=O)cc1 [CTX-1297] (Ac-RC[Aib]R[dY](Me)R[dW]C-NH2; disulfide 2-8 (inferred)) when tested on human MC4R (Homo sapiens, UniProt P32245).
result: 97

query: Quote Emax with test system human MC4R (Homo sapiens, UniProt P32245) for N=C(N)NCCC[C@@H]1NC(=O)[C@@H](Cc2ccccc2)NC(=O)[C@H](Cc2c[nH]cn2)NC(=O)CNC(=O)CSC[C@@H](C(N)=O)NC(=O)[C@H](Cc2ccccc2)NC1=O [CTX-1653] ({CH2CO}-GH[dF]RFC-NH2; thioether N-6)
result: 83

query: Print human MC4R (Homo sapiens, UniProt P32245) Emax for CC(=O)N[C@@H](CCCNC(=N)N)C(=O)N[C@H]1CSSC[C@@H](C(N)=O)NC(=O)[C@H](Cc2c[nH]c3ccccc23)NC(=O)[C@H](CCCNC(=N)N)NC(=O)[C@@H](Cc2ccccc2)NC(=O)[C@H](CCCNC(N)=O)NC(=O)CNC1=O [CTX-1294, Arg-cyclo(Cys-Gly-Cit-D-Phe-Arg-Trp-Cys)] (Ac-RCG[Cit][dF]RWC-NH2; disulfide 2-8 (inferred)) .
result: 102
